Taken from patent US6689777B2.

Tested on: P. falciparum
method_notes: P. falciparum growth in culture ([3H]-hypoxanthine incorporation)
Type: cell-based
particulars: Table 1, aryl monoguanylhydrazones; growth in culture, [3H]-hypoxanthine incorporation; read-out: IC50 vs. P. falc.
Structures can show the parent of a compound that is named as a salt.
assay_readout: pIC50
// pIC50 here means minus log10 of the molar concentration (mol/L)

What value of pIC50 has been reported for the following molecule? CC(=NNC(=N)N)c1cccc(-c2cc(C)n(C)c(=N)n2)c1 [hydrochloride hydroiodide] 5.98

Please give the measured pIC50 for this molecule: CC(=NNC(=N)N)c1ccc(-c2cc(C)n(C)c(=N)n2)cc1 [hydrochloride hydroiodide] 6.22

Reported pIC50 for Cl.N=C(N)NN=Cc1c(N)oc2ccc(Cl)cc2c1=O [hydrochloride] : what is it? 5.49
